Just for reference, ChEMBL document CHEMBL3507680 is where these values come from.

- assay_explanation: Human HepG2 cell viability assay in 384 well format
- Format: toxicity, cell-based
- Set-up: dose 125 nL, time 70.5 hour; concentration not given beside the values
- condition_summary: HepG2 cells, read-out: Inhibition
result_type: cytotoxicity at 70.5 h (%)

{"molecule": "O=C(c1ccco1)N1CCOCC2(C1)CN(c1ccoc1)C(=O)CO2 (centres undefined)", "result_type": "cytotoxicity at 70.5 h", "unit_name": "%", "measurement": -10}
{"molecule": "Cn1nc(C(C)(C)C)cc1NC(=O)CSc1nnc[nH]1", "result_type": "cytotoxicity at 70.5 h", "unit_name": "%", "measurement": -4.97}
{"molecule": "O=C(CN1CCC(C(=O)c2cc(F)ccc2F)CC1)NC1CCCC1", "result_type": "cytotoxicity at 70.5 h", "unit_name": "%", "measurement": 24.6}
{"molecule": "COc1cccc(NC(=O)C2CC(=O)n3cnnc3S2)c1 (centres undefined)", "result_type": "cytotoxicity at 70.5 h", "unit_name": "%", "measurement": 2.31}
{"molecule": "COC(=O)c1ccc(NC(=O)NC2CCc3[nH]ncc3C2)cc1 (centres undefined)", "result_type": "cytotoxicity at 70.5 h", "unit_name": "%", "measurement": 1.54}
{"molecule": "CCOCCN1CCN(Cc2nnc(-c3occc3C)o2)CC1", "result_type": "cytotoxicity at 70.5 h", "unit_name": "%", "measurement": 9.82}
{"molecule": "N#Cc1ccc(CN2C[C@@H]3OCC(=O)N[C@@H]3C2)cc1", "result_type": "cytotoxicity at 70.5 h", "unit_name": "%", "measurement": -5.15}
{"molecule": "CC(C)N1CC[C@H]2[C@H](C[C@@H](Cn3cccn3)N2c2nccs2)C1", "result_type": "cytotoxicity at 70.5 h", "unit_name": "%", "measurement": -4.28}
{"molecule": "CN(CC(=O)NCCCOc1ccc(F)cc1)c1ccc(C#N)cn1", "result_type": "cytotoxicity at 70.5 h", "unit_name": "%", "measurement": -19}
{"molecule": "COCCCNC(=O)c1cc(OC)c2ccoc2c1", "result_type": "cytotoxicity at 70.5 h", "unit_name": "%", "measurement": 22.5}
{"molecule": "Cc1noc(C)c1CN1CC2(CCN(C(=O)c3ccc[nH]3)C2)CC1=O (centres undefined)", "result_type": "cytotoxicity at 70.5 h", "unit_name": "%", "measurement": -6.16}
{"molecule": "COc1ncccc1C(=O)NCC(C)Oc1cccnc1 (centres undefined)", "result_type": "cytotoxicity at 70.5 h", "unit_name": "%", "measurement": -10.8}
{"molecule": "CN1CCOC(CNCc2csc(C3CCCC3)n2)C1 (centres undefined)", "result_type": "cytotoxicity at 70.5 h", "unit_name": "%", "measurement": -1.7}
{"molecule": "Cc1cccc(-c2nc(N)nc3c2CN(C(=O)C2CCCC2)C3C)c1 (centres undefined)", "result_type": "cytotoxicity at 70.5 h", "unit_name": "%", "measurement": -18.6}
{"molecule": "Cc1ccc(NC(=O)CCC2CC2)cc1N1CCOC1=O", "result_type": "cytotoxicity at 70.5 h", "unit_name": "%", "measurement": -10.8}
{"molecule": "Cc1cc(C)c2c(OCC(=O)NC(C)C)nn(C)c2n1", "result_type": "cytotoxicity at 70.5 h", "unit_name": "%", "measurement": 14.7}
{"molecule": "COC(=O)CNC(=O)c1sccc1N(C)S(=O)(=O)c1ccc(Cl)cc1", "result_type": "cytotoxicity at 70.5 h", "unit_name": "%", "measurement": 2.69}
{"molecule": "CCN(Cc1ccncc1)C1CCCN(C/C=C/c2ccc(F)cc2)C1 (centres undefined)", "result_type": "cytotoxicity at 70.5 h", "unit_name": "%", "measurement": -3.49}
{"molecule": "CC(NC(=O)CCc1nc(C(C)(C)C)no1)c1nnc2n1CCC2 (centres undefined)", "result_type": "cytotoxicity at 70.5 h", "unit_name": "%", "measurement": -7.28}
{"molecule": "Nc1cc(N2CCCC(COc3ccc(F)cc3)C2)nc(N)n1 (centres undefined)", "result_type": "cytotoxicity at 70.5 h", "unit_name": "%", "measurement": -2.71}
{"molecule": "c1ccc(Oc2nccnc2C2CCN(C3CCOCC3)CC2)cc1", "result_type": "cytotoxicity at 70.5 h", "unit_name": "%", "measurement": -7.7}
{"molecule": "CNC(=O)c1cccnc1N1CCN(Cc2ccccc2)C(CCO)C1 (centres undefined)", "result_type": "cytotoxicity at 70.5 h", "unit_name": "%", "measurement": -14.9}
{"molecule": "CNS(=O)(=O)c1ccc(CNC(=O)C2CCCN(C)C2)cc1 (centres undefined)", "result_type": "cytotoxicity at 70.5 h", "unit_name": "%", "measurement": -6.65}
{"molecule": "CC[C@@H](C)[C@@H](N)C(=O)Nc1cccc(-c2cnc(N)nc2)c1", "result_type": "cytotoxicity at 70.5 h", "unit_name": "%", "measurement": -6}

---

- assay_explanation: Human HepG2 cell viability assay in 384 well format
- Type: toxicity, cell-based
- Set-up: dose 125 nL, time 70.5 hour; concentration not given beside the values
- condition_summary: HepG2 cells, read-out: Inhibition
result_type: cytotoxicity at 70.5 h (%)

{"compound": "CC(C)c1noc(CCNC(=O)C2COc3ccccc3C2)n1 (stereo not given)", "unit_name": "%", "measurement": 13.6}
{"compound": "CC(Cn1cncn1)NCCN1CCc2ccccc2C1 (stereo not given)", "unit_name": "%", "measurement": -6.48}
{"compound": "CC(C(=O)NCCOc1ccc2c(c1)OCO2)n1cncn1 (stereo not given)", "unit_name": "%", "measurement": -13.4}
{"compound": "CSc1ccc(CN(CCO)C(=O)CCNC(C)=O)cc1", "unit_name": "%", "measurement": -14.7}
{"compound": "Cc1cnn(CC(C)NCc2nc(-c3ccsc3)oc2C)c1 (stereo not given)", "unit_name": "%", "measurement": -8.91}
{"compound": "CCCN(C(=O)c1csnn1)C1CCCN(Cc2ccccc2)C1 (stereo not given)", "unit_name": "%", "measurement": -5.57}
{"compound": "CCOc1cccc(CN(Cc2cnn(C)c2)CC(C)C)c1O", "unit_name": "%", "measurement": 7.39}
{"compound": "Cc1ccccc1C1CCN(C(=O)CCNS(C)(=O)=O)C1 (stereo not given)", "unit_name": "%", "measurement": 20.6}
{"compound": "O=C(NCc1ccccc1)NCc1nc(-c2ccncc2)n[nH]1", "unit_name": "%", "measurement": -3.14}
{"compound": "CC(NCCn1cccn1)c1ccc(F)cc1F (stereo not given)", "unit_name": "%", "measurement": -2.25}
{"compound": "COc1coc(CN2CCCC(CCc3ccccc3C)C2)cc1=O (stereo not given)", "unit_name": "%", "measurement": 2.52}
{"compound": "COc1ccc(OC)c(-n2cnnc2C)c1", "unit_name": "%", "measurement": -3.42}
{"compound": "CNc1cccc(CC2COCCN(C(=O)c3cccnc3)C2)n1 (stereo not given)", "unit_name": "%", "measurement": -3.83}
{"compound": "Cc1nnc(CN2CCCC2c2ccsc2)o1 (stereo not given)", "unit_name": "%", "measurement": -4.6}
{"compound": "Cc1ncncc1C(=O)N1C[C@H]2CC[C@@H]1CN(C(=O)c1ccncc1)C2", "unit_name": "%", "measurement": -0.209}
{"compound": "Cc1nc(CN2CCCC2c2ccsc2)nc2ccccc12 (stereo not given)", "unit_name": "%", "measurement": 4.71}
{"compound": "Cc1nc(C2CCCN(C(=O)CN3CCCC3=O)C2)sc1C (stereo not given)", "unit_name": "%", "measurement": -15.5}
{"compound": "CC(C)(C)n1cc(C2=CCN(CCNC(N)=O)CC2)cn1", "unit_name": "%", "measurement": -0.0754}
{"compound": "CCC(=O)Nc1nnc2n(Cc3cccc(OC)c3)[nH]c(C)c1-2", "unit_name": "%", "measurement": -0.289}
{"compound": "O=C(COc1ccccc1NCc1ccoc1)N1CCOCC1", "unit_name": "%", "measurement": -18.1}
{"compound": "O=C(c1ccccn1)N1CCn2cnc(COCC3CC3)c2C1", "unit_name": "%", "measurement": -1.29}
{"compound": "C1CC(N2Cc3nnn(CC4CC4)c3C(COCC3CC3)C2)C1 (stereo not given)", "unit_name": "%", "measurement": -3.4}
{"compound": "CN(C)S(=O)(=O)N1CCC2(COCc3cnc(NCC4CC4)nc32)C1 (stereo not given)", "unit_name": "%", "measurement": 29.2}
{"compound": "CN1CCOC(CNCC(=O)NCCC2=CCCCC2)C1 (stereo not given)", "unit_name": "%", "measurement": 4.71}
{"compound": "COCCCN1CC2(CCC1=O)CCN(Cc1cc(C)no1)CC2", "unit_name": "%", "measurement": 12.2}
